# TEST NAME: clinical
# EXPERIMENTAL CONTEXT: both, human, in vivo, CL
EXPERIMENTAL ENDPOINT: clearance (mL/min/kg)
Write it as a number; the unit mL/min/kg goes unstated.

Which value of clearance has been reported for CC(=O)[C@H]1CC[C@H]2[C@@H]3CCC4=CC(=O)CC[C@]4(C)[C@H]3CC[C@]12C in the records?
28.8

* * *

# TEST NAME: Pharmacokinetics of progesterone given by intravenous infusion in TBI patients (Example 1)
# EXPERIMENTAL CONTEXT: male, human, in vivo, iv
EXPERIMENTAL ENDPOINT: Vd (L/kg)
Write it as a number; the unit L/kg goes unstated.

Which value of Vd has been reported for CC(=O)[C@H]1CC[C@H]2[C@@H]3CCC4=CC(=O)CC[C@]4(C)[C@H]3CC[C@]12C [progesterone, pregn-4-ene-3,20-dione] in the records?
1.62

* * *

# TEST NAME: Pharmacokinetics of progesterone given by intravenous infusion in TBI patients (Example 1)
# EXPERIMENTAL CONTEXT: female, human, in vivo, iv
EXPERIMENTAL ENDPOINT: Vd

Which value of Vd has been reported for CC(=O)[C@H]1CC[C@H]2[C@@H]3CCC4=CC(=O)CC[C@]4(C)[C@H]3CC[C@]12C in the records?
1.33 L/kg

* * *

# TEST NAME: clinical
# EXPERIMENTAL CONTEXT: female, human, in vivo, t1/2
EXPERIMENTAL ENDPOINT: half-life (h)
Write it as a number; the unit h goes unstated.

Which value of half-life has been reported for CC(=O)[C@H]1CC[C@H]2[C@@H]3CCC4=CC(=O)CC[C@]4(C)[C@H]3CC[C@]12C in the records?
2.03

Where these numbers come from: patent US20090325920A1
